B1: UBE2R2 (parent)
chain: DPQSGELPSERWNPTQNVRTILLS

Variants of: B1
Assay: protein stability index of a GFP-peptide fusion (GPS, HEK-293T) (PSI 1-6); higher = more stable;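 also: lentivirally expressed fusions sorted by FACS into six bins by GFP to DsRed ratio, PSI derived from sequencing read proportions per bin multiplied by bin number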
Settings: c terminus: a fixed tail appended
experimentalEndpoint: protein stability index
Number only, no unit.

Need protein stability index of `L7G` , thanks.
3.69

# input variant: `G5S` ; wanted: its protein stability index
3.61

# protein stability index lookup, item `G5T`
3.93

Which measured protein stability index value corresponds to `R11K` ?
3.5

Request the reported protein stability index associated with `T15K`
3.5

I would be grateful if you could share the reported protein stability index for `N17T` .
3.51

Record request: protein stability index value, item `G5I`
3.24

Suppose we examine the variant `T20G` ; what protein stability index value has been reported?
2.9

What value of measured protein stability index is listed for `G5R` ?
3.45

Entry `P2M` has what protein stability index?
3.16

# protein stability index lookup, item `R11T`
3.98
